# test.method.notes: NCI Yeast Anticancer Drug Screen. Data for the mlh1 rad18 strain (AID 175)
# run.conditions: S. cerevisiae mlh1 rad18 strain growth inhibition; at 50.0 µM
# Experimental: Growth inhibition of yeast strains with defined genetic alterations is measured as a screen for potential anti-cancer activity. Selected strains with alterations in DNA damage repair or cell cycle control were exposed to compounds and growth inhibition was measured relative to vehicle treated controls. The strain used in this assay is mlh1 rad18
This is part of a sample that, as a whole, favours compounds with a hit. Of some 79,000 tested, about 15% had one in any assay. Calls of active or inactive are those of the source. Rule as the data show it: active = growth inhibition above about 70%; inactive = the rest.
Outcome codes: active, inactive

[
  {
    "molecule": "COc1ccc(NP(=S)(Nc2ccc(OC)cc2)c2ccccc2)cc1",
    "assigned.class": "inactive"
  },
  {
    "molecule": "C[C@]12CC/C(=N\\NC(=O)c3ccncc3)C[C@@H]1CC[C@@H]1[C@@H]2CC[C@]2(C)[C@@H](O)CC[C@@H]12",
    "assigned.class": "inactive"
  },
  {
    "molecule": "CCOCCOC(=O)Cc1ccccc1",
    "assigned.class": "active"
  },
  {
    "molecule": "C[CH2][Sn]1([CH2]C)[c]2ccccc2Oc2cccc[c]21",
    "assigned.class": "active"
  },
  {
    "molecule": "ClCCCCCl",
    "assigned.class": "inactive"
  },
  {
    "molecule": "O=[N+]([O-])c1csc([N+](=O)[O-])c1",
    "assigned.class": "active"
  },
  {
    "molecule": "CC(C)C(=O)CP(=O)(O)O",
    "assigned.class": "inactive"
  },
  {
    "molecule": "CCC[CH2][Sn][Cl]",
    "assigned.class": "active"
  },
  {
    "molecule": "O=c1c[n+](-c2ccc[nH+]c2)[nH]o1.[Cl][Hg][Cl]",
    "assigned.class": "active"
  },
  {
    "molecule": "CC(O)([CH2][Hg][Cl])C(O)[CH2][Hg][Cl] (stereo not drawn)",
    "assigned.class": "active"
  },
  {
    "molecule": "CC1CCCN(CCc2ccccc2)CC1 (stereo not drawn)",
    "assigned.class": "inactive"
  },
  {
    "molecule": "O=C1NC(=O)C(C(c2ccnc3ccccc23)C2C(=O)NC(=O)NC2=O)C(=O)N1",
    "assigned.class": "inactive"
  },
  {
    "molecule": "CSCCl",
    "assigned.class": "active"
  }
]

----------
# test.method.notes: NCI Yeast Anticancer Drug Screen. Data for the mlh1 rad18 strain (AID 175)
# run.conditions: S. cerevisiae mlh1 rad18 strain growth inhibition; at 50.0 µM; active compounds read high
This is part of a sample that, as a whole, favours compounds with a hit. Of some 79,000 tested, about 15% had one in any assay.
readout.label: growth inhibition (%)

[
  {
    "compound": "Cc1c([N+](=O)[O-])oc2ccc3ccccc3c12",
    "unit.annotation": "%",
    "recorded.measurement": 95.3
  },
  {
    "compound": "CCN(CC)CC(=O)O[C@]1(CC)C(=O)OCc2c1cc1n(c2=O)Cc2cc3ccccc3nc2-1",
    "unit.annotation": "%",
    "recorded.measurement": 85.6
  },
  {
    "compound": "Nc1nc(N)c(-c2ccc(Cl)c(Cl)c2)c(CCc2ccc(CNC(=O)Nc3ccc(S(=O)(=O)F)cc3)cc2)n1",
    "unit.annotation": "%",
    "recorded.measurement": 84.7
  },
  {
    "compound": "CCC[CH2][Sn]1([CH2]CCC)[O]N=Cc2ccccc2[O]1",
    "unit.annotation": "%",
    "recorded.measurement": 88.3
  },
  {
    "compound": "COC(=O)CC1(C(=O)O)CC2(Cl)C(Cl)=C(Cl)C1(Cl)C2(Cl)Cl (configuration not stated)",
    "unit.annotation": "%",
    "recorded.measurement": 61.4
  },
  {
    "compound": "O=C1C=C(CN(CCCl)CCCl)C(=O)C=C1CN(CCCl)CCCl",
    "unit.annotation": "%",
    "recorded.measurement": 73.6
  },
  {
    "compound": "CCN(CC)CC(=O)c1ccc2c(ccc3ccccc32)c1",
    "unit.annotation": "%",
    "recorded.measurement": 99.3
  },
  {
    "compound": "O=[N+]([O-])c1cc(C(F)(F)F)cc2n[se]nc12",
    "unit.annotation": "%",
    "recorded.measurement": 90.5
  },
  {
    "compound": "CC/C(=C/c1ccc2c(c1)OCO2)[N+](=O)[O-]",
    "unit.annotation": "%",
    "recorded.measurement": 99.4
  },
  {
    "compound": "C[CH2][Sn]([Cl])([CH2]C)[O][Sn]([CH2]C)([CH2]C)[O][Sn]([Cl])([CH2]C)[CH2]C",
    "unit.annotation": "%",
    "recorded.measurement": 81.4
  },
  {
    "compound": "CCCCCCCCCCCCCCCc1cccc(O)c1O",
    "unit.annotation": "%",
    "recorded.measurement": 82.7
  },
  {
    "compound": "C[n+]1ccccc1-c1nc(-c2cccc[n+]2C)nc(-c2cccc[n+]2C)n1",
    "unit.annotation": "%",
    "recorded.measurement": 84.2
  },
  {
    "compound": "Nc1ccccc1C(=O)OCCc1ccccc1",
    "unit.annotation": "%",
    "recorded.measurement": 85.7
  },
  {
    "compound": "CCCCCCCCCCCCN=C(N)N",
    "unit.annotation": "%",
    "recorded.measurement": 98.4
  },
  {
    "compound": "CCC[CH2][Sn]([Cl])([CH2]C)[O][Sn]([Cl])([CH2]C)[CH2]CCC (configuration not stated)",
    "unit.annotation": "%",
    "recorded.measurement": 90.2
  },
  {
    "compound": "CCNC(=O)O/N=C1/C=C2CC[C@@H]3C(CC[C@@]4(C)C3CC[C@@H]4OC(=O)NCC)[C@@]2(C)CC1 (some centres not stated)",
    "unit.annotation": "%",
    "recorded.measurement": 97.5
  },
  {
    "compound": "COc1ccc(C(Cc2ccc(Cl)c(Cl)c2)NCCO)cc1 (configuration not stated)",
    "unit.annotation": "%",
    "recorded.measurement": 86.2
  },
  {
    "compound": "COc1cc(N(CCCl)CCCl)ccc1C=Nc1cccc(Cl)c1",
    "unit.annotation": "%",
    "recorded.measurement": 94.2
  },
  {
    "compound": "[Cl][Sn]([c]1ccccc1)[c]1ccccc1",
    "unit.annotation": "%",
    "recorded.measurement": 83.5
  },
  {
    "compound": "c1ccc(C(C(=Nc2ccc(Cc3ccc(N=C(C(c4ccccc4)c4ccccc4)N4CC4)cc3)cc2)N2CC2)c2ccccc2)cc1",
    "unit.annotation": "%",
    "recorded.measurement": 91.7
  },
  {
    "compound": "CC1CN1C1=C(Cl)C(=O)C(N2CC2C)=C(Cl)C1=O (configuration not stated)",
    "unit.annotation": "%",
    "recorded.measurement": 69.1
  },
  {
    "compound": "O=C(COc1ccc(Cl)c(Cl)c1)N(Cc1ccccc1)Cc1ccc[n+](Cc2ccc(Cl)cc2S(=O)(=O)F)c1",
    "unit.annotation": "%",
    "recorded.measurement": 60.1
  }
]

----------
# test.method.notes: NCI Yeast Anticancer Drug Screen. Data for the rad18 strain (AID 177)
# run.conditions: S. cerevisiae rad18 mutant growth inhibition; at 33.0 µM; active compounds read high
Compounds without any hit were thinned out: in the full panel of roughly 79,000, 15% have a hit.
Cut-off 90% on growth inhibition, inclusive. At or above means satisfied; below means not satisfied.

[
  {
    "molecule": "C[C@]12CCC(=O)C=C1CC[C@@H]1C2CC[C@@]2(C)C1CC[C@@H]2OC(=O)C12OC1CCC2=O (stereo not given in full)",
    "assigned.class": "not satisfied"
  },
  {
    "molecule": "COc1cc([C@@H]2c3cc4c(cc3C[C@@H]3COC(=O)C32)OCO4)cc(OC)c1O (stereo not given in full)",
    "assigned.class": "not satisfied"
  },
  {
    "molecule": "c1ccc2cc3n[se]nc3cc2c1",
    "assigned.class": "not satisfied"
  },
  {
    "molecule": "C[N+](CCCl)(CCCl)Cc1cccc2cccc([N+](=O)[O-])c12",
    "assigned.class": "satisfied"
  },
  {
    "molecule": "C=CC[N+]12CN3CN(CN(C3)C1)C2",
    "assigned.class": "not satisfied"
  },
  {
    "molecule": "[O-][n+]1c2cccc(O)c2[n+]([O-])c2cccc(O)c21",
    "assigned.class": "satisfied"
  },
  {
    "molecule": "Cc1c(N)nc([C@H](CC(N)=O)NC[C@H](N)C(N)=O)nc1C(=O)N[C@H](C(=O)N[C@H](C)[C@@H](O)[C@H](C)C(=O)N[C@H](C(=O)NCCc1nc(-c2nc(C(=O)NCCC[S+](C)C)cs2)cs1)[C@@H](C)O)C(OC1OC(CO)C(O)C(O)C1OC1OC(CO)C(O)C(OC(N)=O)C1O)c1cnc[nH]1 (stereo not given in full)",
    "assigned.class": "satisfied"
  },
  {
    "molecule": "Cn1cc(NC(=O)c2cc(NC(=O)CN=C(N)N)cn2C)cc1C(=O)NCCC(=N)N",
    "assigned.class": "satisfied"
  },
  {
    "molecule": "NNc1ccccc1Cl",
    "assigned.class": "satisfied"
  },
  {
    "molecule": "CC1=C2C(=C[C@@](C)(CO)[C@@H]2O)C(=O)[C@](C)(O)C12CC2",
    "assigned.class": "satisfied"
  },
  {
    "molecule": "COc1cc2ccccc2c2cc([N+](=O)[O-])oc12",
    "assigned.class": "satisfied"
  },
  {
    "molecule": "O=[N+]([O-])c1ccc(N2CCC(CCCC3CCN(c4ccc([N+](=O)[O-])cc4[N+](=O)[O-])CC3)CC2)c([N+](=O)[O-])c1",
    "assigned.class": "not satisfied"
  },
  {
    "molecule": "O=C(Nc1cc(Cl)ccc1Cl)C(Cl)(Cl)Cl",
    "assigned.class": "not satisfied"
  },
  {
    "molecule": "C[C@@]12CCC(=O)C=C1CC[C@H]1C2=CC[C@]2(C)C1CC[C@@]2(C)O (stereo not given in full)",
    "assigned.class": "not satisfied"
  },
  {
    "molecule": "O=[N+]([O-])c1oc2ccc3ccccc3c2c1CCO",
    "assigned.class": "satisfied"
  },
  {
    "molecule": "CC(=O)O/C(=C1\\C[C@H]2[C@@H]3CC=C4C[C@@H](OC(C)=O)CC[C@]4(C)[C@H]3CC[C@]2(C)C1=O)C(F)(F)F",
    "assigned.class": "not satisfied"
  },
  {
    "molecule": "O=C1NC(=S)NC(=O)C1=Cc1ccc([N+](=O)[O-])o1",
    "assigned.class": "not satisfied"
  },
  {
    "molecule": "CCS(=O)(=O)[O][Sn]([CH2]C)([CH2]C)[O]S(=O)(=O)CC",
    "assigned.class": "not satisfied"
  }
]
